Test system: mRNA expressed from the genes (A) to (D) in rat liver
Test: Behavior of genes (mRNA expression level, oligo-DNA microarray) in rat liver after 28-day oral administration
Format: in vivo
Conditions: gene group (C); Unigene No. Rn.23969; mRNA vs vehicle control group
RECORDED_METRIC: Behavior of gene caused by administration of chemical substance, Gene No. 2494

{"MOLECULE": "Cc1ccc2cc3c(ccc4ccccc43)c3c2c1CC3", "RESULT": "−"}
{"MOLECULE": "CCC1(c2ccccc2)C(=O)NC(=O)NC1=O", "RESULT": "+"}
{"MOLECULE": "C=CCc1ccc2c(c1)OCO2", "RESULT": "−"}
{"MOLECULE": "O=C(O)C1C(C(=O)O)C2(Cl)C(Cl)=C(Cl)C1(Cl)C2(Cl)Cl (centres unmarked)", "RESULT": "−"}
{"MOLECULE": "CCCCC(CC)COC(=O)CCCCC(=O)OCC(CC)CCCC (centres unmarked) [TS018, Di(2-ethylhexyl)adipate]", "RESULT": "−"}

====

Tested on: mRNA expressed from the genes (A) to (D) in rat liver
Assay: Behavior of genes (mRNA expression level, oligo-DNA microarray) in rat liver after 28-day oral administration
Format: in vivo
Details: gene group (D); Unigene No. Rn.9939; mRNA vs vehicle control group
RECORDED_METRIC: Behavior of gene caused by administration of chemical substance, Gene No. 5726

{"COMPOUND": "CCCCC(CC)COC(=O)CCCCC(=O)OCC(CC)CCCC (centres unmarked) [TS018, Di(2-ethylhexyl)adipate]", "RESULT": "−"}
{"COMPOUND": "O=C(O)C(Cl)(Cl)Cl", "RESULT": "+"}
{"COMPOUND": "Cc1c(N)cccc1N", "RESULT": "−"}
{"COMPOUND": "CN(C)c1ccc(N=Nc2ccccc2)cc1", "RESULT": "+"}
{"COMPOUND": "Cc1ccc2cc3c(ccc4ccccc43)c3c2c1CC3", "RESULT": "+"}
{"COMPOUND": "Cc1c2ccccc2c(C)c2c1ccc1ccccc12 [TS047, 7,12-Dimethylbenz [a]anthracene]", "RESULT": "+"}
{"COMPOUND": "CC/C(=C(/CC)c1ccc(O)cc1)c1ccc(O)cc1", "RESULT": "−"}
{"COMPOUND": "CCN(N=O)C(N)=O", "RESULT": "+"}

====

Tested on: mRNA expressed from the genes (A) to (D) in rat liver
Assay: Behavior of genes (mRNA expression level, oligo-DNA microarray) in rat liver after 28-day oral administration
Assay type: in vivo
Conditions: rat, in vivo
RECORDED_METRIC: Behavior of gene caused by administration of chemical substance, Gene No. 1131

{"MOLECULE": "OCCCl", "RESULT": "−"}
{"MOLECULE": "Oc1cccc2cccnc12 [TS007, 8-Hydroxyquinoline]", "RESULT": "−"}
{"MOLECULE": "CC(=O)Nc1ccc(C(=O)CCl)cc1 [TS072, 4-(Chloroacetyl)acetanilide]", "RESULT": "−"}
{"MOLECULE": "Cl[C@H]1[C@H](Cl)[C@H](Cl)[C@@H](Cl)[C@H](Cl)[C@H]1Cl", "RESULT": "−"}
{"MOLECULE": "Cl[C@H]1[C@H](Cl)[C@@H](Cl)[C@@H](Cl)[C@H](Cl)[C@H]1Cl", "RESULT": "+"}
{"MOLECULE": "Cc1c(C)c2c(c(C)c1O)CC[C@@](C)(CCC[C@H](C)CCC[C@H](C)CCCC(C)C)O2", "RESULT": "−"}
{"MOLECULE": "O=C1N=C([O-])NC1(c1ccccc1)c1ccccc1.[Na+]", "RESULT": "−"}
{"MOLECULE": "ClC(Cl)Cl [TS056, Chloroform]", "RESULT": "+"}
